- Experimental target: GST-tagged GDP-loaded KRAS G12V (amino acids 1-169) (Homo sapiens, UniProt P01116, G12V)
- Construct: GST-tagged GDP-loaded KRAS G12V (amino acids 1-169)
- Sequence (P01116 1-169 isoform P01116-2 G12V): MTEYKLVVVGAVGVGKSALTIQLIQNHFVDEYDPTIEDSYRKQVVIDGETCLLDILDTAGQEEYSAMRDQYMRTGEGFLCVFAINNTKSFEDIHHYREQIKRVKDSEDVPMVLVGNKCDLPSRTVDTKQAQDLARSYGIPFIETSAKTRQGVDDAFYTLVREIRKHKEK
- Method summary: KRAS G12V probe displacement assay (TR-FRET)
- Run parameters: displacement of biotinylated probe 2 from GDP-loaded KRAS G12V
# Lookup of reported log10 IC50 keyed by entry
Value kind: log10 IC50 (log10 of the value in nM)

[
  {
    "Molecule": "Nc1nc2c(-c3c(C(F)(F)F)cc4c(N5CC6CC5C6)nc(OC[C@@]56CCCN5C[C@H](F)C6)nc4c3F)ccc(F)c2s1",
    "Experimental target": "GST-tagged GDP-loaded KRAS G12V (amino acids 1-169) (Homo sapiens, UniProt P01116, G12V)",
    "Measured result": 1.34
  },
  {
    "Molecule": "C[C@H]1COC[C@H](C)N1c1nc(OC[C@@]23CCCN2C[C@H](F)C3)nc2c(F)c(-c3cc(N)cc(Cl)c3C(F)(F)F)ncc12",
    "Experimental target": "GST-tagged GDP-loaded KRAS G12V (amino acids 1-169) (Homo sapiens, UniProt P01116, G12V)",
    "Measured result": 1.36
  },
  {
    "Molecule": "Cc1cc(N)nc(-c2c(Cl)cc3c(N4CC[C@@H](C#N)C[C@@H]4C)nc(OC[C@@]45CCCN4C[C@H](F)C5)nc3c2F)c1C(F)(F)F (mixture of isomers)",
    "Experimental target": "GST-tagged GDP-loaded KRAS G12V (amino acids 1-169) (Homo sapiens, UniProt P01116, G12V)",
    "Measured result": 0.85
  },
  {
    "Molecule": "CCN1CC2(CCN(c3nc(OC[C@@]45CCCN4C[C@H](F)C5)nc4c(F)c(-c5ccc(F)c6sc(N)nc56)c(C(F)(F)F)cc34)CC2)OC1=O",
    "Experimental target": "GST-tagged GDP-loaded KRAS G12V (amino acids 1-169) (Homo sapiens, UniProt P01116, G12V)",
    "Measured result": 0.15
  },
  {
    "Molecule": "Nc1nc2c(-c3c(C(F)(F)F)cc4c(NC5CCC5)nc(OC[C@@]56CCCN5C[C@H](F)C6)nc4c3F)ccc(F)c2s1",
    "Experimental target": "GST-tagged GDP-loaded KRAS G12V (amino acids 1-169) (Homo sapiens, UniProt P01116, G12V)",
    "Measured result": 1.28
  },
  {
    "Molecule": "Cc1nc(N)nc(-c2c(Cl)cc3c(N4CCC(C#N)CC4)nc(OC[C@@]45CCCN4C[C@H](F)C5)nc3c2F)c1C(F)(F)F",
    "Experimental target": "GST-tagged GDP-loaded KRAS G12V (amino acids 1-169) (Homo sapiens, UniProt P01116, G12V)",
    "Measured result": 1.86
  }
]

---

- Experimental target: GST-tagged GDP-loaded KRAS G12V (amino acids 1-169) (Homo sapiens, UniProt P01116, G12V)
- Construct: GST-tagged GDP-loaded KRAS G12V (amino acids 1-169)
- Method summary: KRAS G12V probe displacement assay (TR-FRET)
- Run parameters: displacement of biotinylated probe 2 from GDP-loaded KRAS G12V
- Protocol: KRAS WT and KRAS G12V Probe Displacement Assay This assay was used to identify compounds which bind to GDP-loaded KRAS protein and are able to displace a biotinylated probe occupying the KRAS binding site. […] The TR-FRET signals (ex337 nm, em665 nm/620 nm) were read on BMG PHERAstar FSX instrument. The inhibition percentage of KRAS protein binding with biotinylated probe in presence of increasing concentrations of compounds was calculated based on the ratio of fluorescence at 665 nm to that at 620 nm. […]

[
  {
    "Molecule": "C[C@H]1CCCN1c1nc(OC[C@@]23CCCN2C[C@H](F)C3)nc2c(F)c(-c3ccc(F)c4sc(N)nc34)c(C(F)(F)F)cc12",
    "Unit annotation": "nM",
    "IC50": 22
  },
  {
    "Molecule": "N#C[C@@H]1CCN(c2nc(OC[C@@]34CCCN3C[C@H](F)C4)nc3c(F)c(-c4ccc(F)c5sc(N)nc45)c(C(F)(F)F)cc23)C[C@H]1O (mixture of isomers)",
    "Unit annotation": "nM",
    "IC50": 3.8
  },
  {
    "Molecule": "C[C@H]1COCCN1c1nc(OC[C@@]23CCCN2C[C@H](F)C3)nc2c(F)c(-c3cc(N)cc(Cl)c3C(F)(F)F)ncc12",
    "Unit annotation": "nM",
    "IC50": 9.2
  }
]

---

- Experimental target: GST-tagged GDP-loaded KRAS G12V (amino acids 1-169) (Homo sapiens, UniProt P01116, G12V)
- Construct: GST-tagged GDP-loaded KRAS G12V (amino acids 1-169)
- Method summary: KRAS G12V probe displacement assay (TR-FRET)
- Run parameters: displacement of biotinylated probe 2 from GDP-loaded KRAS G12V
pIC50: −log10 of the molar value.
# Lookup of reported pIC50 keyed by entry

[
  {
    "Molecule": "CCC1(O)CCCN(c2nc(OC[C@@]34CCCN3C[C@H](F)C4)nc3c(F)c(-c4cc(N)cc(Cl)c4C(F)(F)F)ncc23)C1 (stereo partly drawn)",
    "Experimental target": "GST-tagged GDP-loaded KRAS G12V (amino acids 1-169) (Homo sapiens, UniProt P01116, G12V)",
    "pIC50": 7.49
  },
  {
    "Molecule": "C[C@@H]1CCN(c2nc(OC[C@@]34CCCN3C[C@H](F)C4)nc3c(F)c(-c4ccc(F)c5sc(N)nc45)c(C(F)(F)F)cc23)C1",
    "Experimental target": "GST-tagged GDP-loaded KRAS G12V (amino acids 1-169) (Homo sapiens, UniProt P01116, G12V)",
    "pIC50": 7.39
  },
  {
    "Molecule": "N#CCC1CCN(c2nc(OC[C@@]34CCCN3C[C@H](F)C4)nc3c(F)c(-c4ccc(F)c5sc(N)nc45)c(C(F)(F)F)cc23)C1 (stereo partly drawn)",
    "Experimental target": "GST-tagged GDP-loaded KRAS G12V (amino acids 1-169) (Homo sapiens, UniProt P01116, G12V)",
    "pIC50": 7.85
  }
]

---

- Experimental target: GST-tagged GDP-loaded KRAS G12V (amino acids 1-169) (Homo sapiens, UniProt P01116, G12V)
- Construct: GST-tagged GDP-loaded KRAS G12V (amino acids 1-169)
- Method summary: KRAS G12V probe displacement assay (TR-FRET)
- Run parameters: displacement of biotinylated probe 2 from GDP-loaded KRAS G12V
# Lookup of reported IC50 keyed by entry

[
  {
    "Compound": "Nc1nc2c(-c3c(C(F)(F)F)cc4c(N5CCCC5)nc(OC[C@@]56CCCN5C[C@H](F)C6)nc4c3F)ccc(F)c2s1",
    "Unit annotation": "nM",
    "IC50": 13
  },
  {
    "Compound": "N#CC1(F)CCN(c2nc(OC[C@@]34CCCN3C[C@H](F)C4)nc3c(F)c(-c4ccc(F)c5sc(N)nc45)c(C(F)(F)F)cc23)CC1",
    "Unit annotation": "nM",
    "IC50": 7.5
  },
  {
    "Compound": "N#CC1CCN(c2nc(OC[C@@]34CCCN3C[C@H](F)C4)nc3c(F)c(-c4ccc(F)c5sc(N)nc45)c(C(F)(F)F)cc23)CC1F (stereo partly drawn)",
    "Unit annotation": "nM",
    "IC50": 2
  }
]

---

- Experimental target: GST-tagged GDP-loaded KRAS G12V (amino acids 1-169) (Homo sapiens, UniProt P01116, G12V)
- Construct: GST-tagged GDP-loaded KRAS G12V (amino acids 1-169)
- Method summary: KRAS G12V probe displacement assay (TR-FRET)
- Run parameters: displacement of biotinylated probe 2 from GDP-loaded KRAS G12V
# Lookup of reported IC50 keyed by entry

[
  {
    "Compound": "Nc1nc2c(-c3c(C(F)(F)F)cc4c(N5CC[C@H](CO)C5)nc(OC[C@@]56CCCN5C[C@H](F)C6)nc4c3F)ccc(F)c2s1",
    "Experimental target": "GST-tagged GDP-loaded KRAS G12V (amino acids 1-169) (Homo sapiens, UniProt P01116, G12V)",
    "IC50": "7.7 nM"
  },
  {
    "Compound": "C[C@@]1(O)CCCN(c2nc(OC[C@@]34CCCN3C[C@H](F)C4)nc3c(F)c(-c4ccc(F)c5sc(N)nc45)c(C(F)(F)F)cc23)C1",
    "Experimental target": "GST-tagged GDP-loaded KRAS G12V (amino acids 1-169) (Homo sapiens, UniProt P01116, G12V)",
    "IC50": "17 nM"
  },
  {
    "Compound": "CC1CC(C#N)CCN1c1nc(OC[C@@]23CCCN2C[C@H](F)C3)nc2c(F)c(-c3cc(N)cc(Cl)c3C(F)(F)F)ncc12 (stereo partly drawn)",
    "Experimental target": "GST-tagged GDP-loaded KRAS G12V (amino acids 1-169) (Homo sapiens, UniProt P01116, G12V)",
    "IC50": "15 nM"
  }
]

Reference source for all entries: patent US20250101028A1
